- RUN DESCRIPTION: Peptide stability in simulated intestinal fluid (SIF)
- Assay type: in vitro ADME
- RECORDED CONDITIONS: pig, simulated intestinal fluid; SIF, 4 h, pH 6.8, pancreatin, 37° C., 10 μM; read-out: SIF (% remaining 4 h)
OBSERVABLE: remaining at 4 h, 10 µM (%)
// units = %; emit number, no label

{"columns": ["COMPOUND", "MEASUREMENT UNIT", "remaining at 4 h, 10 µM"],
 "data": [
  ["CC(C)C[C@@H]1NC(=O)[C@H](Cc2c[nH]c3ccccc23)NC(=O)[C@H](Cc2c[nH]c3ccccc23)NC(=O)[C@@H]2CSCC(=O)CSC[C@H](NC(=O)[C@H]([C@@H](C)O)NC(=O)[C@@H](NC(=O)CN)CSCC(=O)CSC[C@@H](C(=O)N[C@@H](CO)C(N)=O)NC1=O)C(=O)N[C@@H](Cc1c[nH]c3ccccc13)C(=O)N[C@@H](CCC(=O)O)C(=O)N2 (single isomer, unassigned) [I1 (isomer 3), H-GC(1a)TC(2a)WEC(2a)WWLC(1a)S-[NH2], reference compound]", "%", 0]
]}

Lab note: next compound to report on.
Task item: Return value of remaining at 4 h, 10 µM for input CC(C)C[C@@H]1NC(=O)[C@H](Cc2c[nH]c3ccccc23)NC(=O)[C@H](Cc2c[nH]c3ccccc23)NC(=O)[C@@H]2CSCC(=O)CSC[C@H](NC(=O)[C@H](CO)NC(=O)[C@@H](NC(=O)[C@@H](N)CC(=O)O)CSCC(=O)CSC[C@@H](C(=O)N[C@@H](CCCNC(=N)N)C(N)=O)NC1=O)C(=O)N[C@@H](Cc1c[nH]c3ccccc13)C(=O)N[C@@H](CCC(N)=O)C(=O)N2 (single isomer, unassigned) [I3 (isomer 3), H-DC(1a)SC(2a)WQC(2a)WWLC(1a)R-[NH2], reference compound] , no commentary.
Reply: 0

src = patent US20260327264A1
